- System: mice
- Assay Overview: Rotarod (ROT) neurotoxicity test
- Assay Conditions: 0.5 h after administration; doses 100, 300 mg/kg
Listing: NT (neurotoxicity, ROT), dose at which at least one of three animals showed neurotoxicity of selected compounds
Write the value in mg/kg as a bare number.

> print(dat)
             chemical.structure  measured.result
1  CCCCC(=O)Nc1ccc(-n2cncn2)cc1              300

Item CCCC(=O)Nc1ccc(-n2cncn2)cc1 ; assay system mice; NT (neurotoxicity, ROT), dose at which at least one of three animals showed neurotoxicity reported as 300

====

- System: MES-induced seizures
- Assay Overview: animal or person
- Assay type: in vivo, Kunming mice
- Assay Conditions: Kunming, mouse, in vivo, 0.5 h
Property Measured: PI (TD50/ED50) MES
Answer as a number with no unit attached.

// worked examples, PI (TD50/ED50) MES included
> print(dat)
                                   compound         target.entity   property.measured  measured.result
1  O=C(Nc1ccc(-n2cncn2)cc1)c1cccc(C(F)(F)F)c1  MES-induced seizures  PI (TD50/ED50) MES             17.4
2       O=C(Nc1ccc(-n2cncn2)cc1)c1cccc(F)c1  MES-induced seizures  PI (TD50/ED50) MES             36.3
3              CCCCC(=O)Nc1ccc(-n2cncn2)cc1  MES-induced seizures  PI (TD50/ED50) MES             15.0
4  NC(=O)N1c2ccccc2C=Cc2ccccc21 [Carbamazepine, reference compound]  MES-induced seizures  PI (TD50/ED50) MES              6.1

The compound identified as O=C(Nc1ccc(-n2cncn2)cc1)c1ccc(F)cc1 registered its PI (TD50/ED50) MES at 31.3

The compound identified as Cc1cccc(C(=O)Nc2ccc(-n3cncn3)cc2)c1 registered its PI (TD50/ED50) MES at 45.9

====

- Assay Overview: Rotarod (ROT) neurotoxicity test
- Assay Conditions: Kunming, mouse, in vivo, intraperitoneal
Property Measured: TD50 at 0.5 h (mg/kg)
Write the value in mg/kg as a bare number.

The molecule identified as O=C(Nc1ccc(-n2cncn2)cc1)c1cccc(F)c1 registered its TD50 at 0.5 h at 477

====

- System: pentylenetetrazole-induced clonic seizures
- Assay Overview: animal or person
- Format: in vivo, Kunming mice
- Assay Conditions: Kunming, mouse, in vivo, 0.5 h
Listing: PI (TD50/ED50) scPTZ of selected molecules
Answer as a number with no unit attached.

// worked examples, PI (TD50/ED50) scPTZ included
> print(dat)
                                   molecule     property.measured  measured.result
1  O=C(Nc1ccc(-n2cncn2)cc1)c1cccc(C(F)(F)F)c1  PI (TD50/ED50) scPTZ             16.7
2  CCC1(C)CC(=O)NC1=O (stereo not drawn) [Ethosuximide, reference compound]  PI (TD50/ED50) scPTZ              3.5
3       O=C(Nc1ccc(-n2cncn2)cc1)c1cccc(F)c1  PI (TD50/ED50) scPTZ             24.2

The molecule identified as CCCCC(=O)Nc1ccc(-n2cncn2)cc1 registered its PI (TD50/ED50) scPTZ at 7.3

The molecule identified as O=C(Nc1ccc(-n2cncn2)cc1)c1ccc(F)cc1 registered its PI (TD50/ED50) scPTZ at 13.6

The molecule identified as Cc1cccc(C(=O)Nc2ccc(-n3cncn3)cc2)c1 registered its PI (TD50/ED50) scPTZ at 22.1
